molecular target: T1, recombinant mouse Sortilin (mouse, UniProt Q6PHU5 74-825); assay: flow cytometry, 10 ug/ml antibody on 293 cells expressing recombinant mouse Sortilin, PE anti-human secondary
T1 construct: also called mSort
Items are presented alongside their recorded MFI binding.
A complete answer gives the number and then names the unit.

binder	MFI binding
anti-Sortilin antibody S-69 (antibody, V domains shown, Tested as full IgG made in yeast) VH: QVQLQESGPGLVKPSQTLSLTCTVSGGSISSGGYYWSWIRQHPGKGLEWIGYIYYSGSTYYNPSLKSRVTISVDTSKNQFSLKLSSVTAADTAVYYCARDRGGTHFGADHYYYGMDVWGQGTMVTVSS VL: EIVMTQSPATLSVSPGERATLSCRASQSVSSSLAWYQQKPGQAPRLLIYGASTRATGIPARFSGSGSGTEFTLTISSLQSEDFAVYYCQQAADWPITFGGGTKVEIK	1890 MFI
anti-Sortilin antibody S-73 (antibody, V domains shown, Tested as full IgG made in yeast) VH: QVQLQESGPGLVKPSQTLSLTCTVSGGSISSGTYYWSWIRQHPGKGLEWIGYIYYSGSTYYNPSLKSRVTISVDTSKNQFSLKLSSVTAADTAVYYCARGVGRYRVADYWGQGTLVTVSS VL: EIVLTQSPATLSLSPGERATLSCRASQSVSSYLAWYQQKPGQAPRLLIYDASNRATGIPARFSGSGSGTDFTLTISSLEPEDFAVYYCQQASVYPPITFGGGTKVEIK	7670 MFI
anti-Sortilin antibody S-74 (antibody, V domains shown, Tested as full IgG made in yeast) VH: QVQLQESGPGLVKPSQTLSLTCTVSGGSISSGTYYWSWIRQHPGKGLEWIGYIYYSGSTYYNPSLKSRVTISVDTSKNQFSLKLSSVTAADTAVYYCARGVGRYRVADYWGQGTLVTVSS VL: EIVMTQSPATLSLSPGERATLSCRASQSVSSYLAWYQQKPGQAPRLLIYDSSNRATGIPARFSGSGSGTDFTLTISSLEPEDFAVYYCQQETNMPPITFGGGTKVEIK	7300 MFI

Now examine the next entry.
I have this binder here, anti-Sortilin antibody S-76 (antibody, V domains shown, Tested as full IgG made in yeast) VH: QVQLQESGPGLVKPSQTLSLTCTVSGGSISSGGYYWSWIRQHPGKGLEWIGSIYYSGSTYYNPSLKSRVTISVDTSKNQFSLKLSSVTAADTAVYYCARGVGIQQQLVLGFDPWGQGTLVTVSS VL: DIQMTQSPSSLSASVGDRVTITCRASQSISSFLNWYQQKPGKAPKLLISAASSLQSGVPSRFSGSGSGTDFTLTISSLQPEDFATYYCQQSYREPITFGGGTKVEIK , and I need its recorded MFI binding. 4180 MFI
